target: human CaMKII-α hub (Homo sapiens); construct: human CaMKII-α hub consisted of residues 345–475 (UNIPROT id: Q9UQM7); 6-histidine tag with PreScission protease site (N, cleaved yes); made in house; host or cells: E. coli BL21; assay: Fluorescence polarization, direct titration of hub to BODIPY-labeled peptide; settings: 2 nM Bodipy-FL-labeled peptide, hub 0-1000 μM, 25 mM Tris pH 8.0; non-saturable binding at high hub concentrations, value not relied on; read-out: KD derived from direct titration of the hub to the labeled peptide
Ends that are not written are not given here.
attributeMeasured: Kd

Given the entry RRKLKGAILTTMLATRC [peptide A] , report its measured Kd.
~100 µM
